procedureDetails: Urinary pharmacokinetics after single oral dose of brigatinib 90 mg
Type: in vivo, human
cond: human, urine, oral, 90 mg, Severe Renal Impairment (n=8); read-out: CLR, Range
readout: CL renal

Record COc1cc(N2CCC(N3CCN(C)CC3)CC2)ccc1Nc1ncc(Cl)c(Nc2ccccc2P(C)(C)=O)n1 , field CL renal: 5.4 to 13.4 mL/min

* * *

procedureDetails: Open-label single-dose (brigatinib 90 mg oral, fasting) plasma pharmacokinetic study, severe renal impairment vs matched healthy volunteers
Type: in vivo, human
cond: human, plasma, oral, 90 mg, patients with severe renal impairment; after a single dose; read-out: mean t1/2 (converted)
readout: half-life

Record COc1cc(N2CCC(N3CCN(C)CC3)CC2)ccc1Nc1ncc(Cl)c(Nc2ccccc2P(C)(C)=O)n1 , field half-life: ~54 h
